Numbers sourced from the METLIN SMRT retention time set (Domingo-Almenara et al. 2019).

experiment: gradient 5% acetonitrile 3 min, to 50% in 2 min, to 85% in 15 min, held 3 min, 100 µL/min; conditions: column: Zorbax Extend-C18 2.1 x 50 mm; eluents: water / acetonitrile, 0.1% formic acid
reported metric: RP-LC retention time (s)

Answered examples (5):
CN1C(=O)c2cccn2CC1C(=O)Nc1ccc(F)cc1 (stereo not given) : 677
O=C(Cn1cnc2c(sc3nc(-c4ccccc4)ccc32)c1=O)NC1CCCC1 : 906
CC(C)c1nc(-c2ccc(OC3CCN(C(=O)Cc4c[nH]c5ccccc45)C3)cc2)no1 (stereo not given) : 923
COCC(=O)N1CCCCCNC(=O)[C@@H]2CCCC[C@@H]21 : 631
COC(=O)c1cnc(N2CCN(c3cccc(Cl)c3)CC2)c2ccccc12 : 1350

P = COc1ccc(CN2C=C(C(=O)OCc3cc(=O)n4ccccc4n3)C(C)=NS2(=O)=O)cc1
Q = Cc1c(C2CCN(C(=O)c3ccc(Br)cc3)CC2)noc1N
Req: Between P and Q , whose recorded RP-LC retention time is greater? Field: selected label. Fill in the label of the entry you choose.
Resp: P
(P: 1130 s, Q: 728 s)

====

test: gradient 5% acetonitrile 3 min, to 50% in 2 min, to 85% in 15 min, held 3 min, 100 µL/min; conditions: column: Zorbax Extend-C18 2.1 x 50 mm; eluents: water / acetonitrile, 0.1% formic acid
reported metric: RP-LC retention time (s)

Cc1nc(-c2cccnc2)nc2c1CC(=O)N2C(C)C : 654
Cc1ccc(NC(=O)Cn2c(C(C)C)nc3c(c2=O)CCN(Cc2ccccc2)C3)cc1 : 714
O=C(Cc1ccc(Cl)cc1)Nc1cnc(N2CCCC2)nc1 : 752
O=C(NCc1csc(C2CCN(C(=O)c3ccc(F)cc3F)CC2)n1)C1CCC1 : 729
Cc1ccc(CNC(=O)C2CCN(c3cncnc3N3CCCC3)CC2)cc1 : 662
COC(=O)C1=C(NC(=O)c2cccc(F)c2)CCS1 : 964
Cc1ccc(NC(=O)Cn2c(C)nc3c(sc4nc(-c5ccccc5)ccc43)c2=O)c(C)c1 : 1090
O=C(NCc1ccc(F)cc1F)c1csc(C(=O)NC2CCCC2)n1 : 895
Cc1[nH]c(C(=O)Nc2ccccc2)c(C)c1S(=O)(=O)N1CCCCC1 : 925
Cc1cccc(CNC(=O)CC2CCN(C(=O)c3[nH]c(C)c(C(=O)OC(C)C)c3C)CC2)c1 : 880

====

assay: gradient 5% acetonitrile 3 min, to 50% in 2 min, to 85% in 15 min, held 3 min, 100 µL/min; conditions: column: Zorbax Extend-C18 2.1 x 50 mm; eluents: water / acetonitrile, 0.1% formic acid
reported metric: RP-LC retention time (s)

Below: 3 molecules and their reported RP-LC retention time.
Cc1ccc(-c2nc3ccccn3c2NC(=O)Nc2cc(F)ccc2F)cc1 : 707
Cc1ccc(C)c(NC(=O)Nc2cccc(-c3cn4cccnc4n3)c2)c1 : 696
Cn1nc(-c2ccsc2)nc1C1CN(S(=O)(=O)c2cccnc2)C1 : 712

A = Cc1ccc(-c2csc(NC(=O)c3c(-c4ccc(F)cc4)nc4n3CCS4(=O)=O)n2)cc1
B = COCCn1nc2n(c1=O)CCN(C(=O)c1cc(C3CC3)[nH]n1)CC2
Req: Given the listed records, identify the one among A and B with higher RP-LC retention time. Kindly state the label of the option you pick.
Resp: A
(A: 1070 s, B: 596 s)

====

test: gradient 5% acetonitrile 3 min, to 50% in 2 min, to 85% in 15 min, held 3 min, 100 µL/min; settings: column: Zorbax Extend-C18 2.1 x 50 mm; eluents: water / acetonitrile, 0.1% formic acid
reported metric: RP-LC retention time (s)

Use these answered entries as a reference point.
CCC(CO)Nc1nc2ccc(Cl)cc2c2ccccc12 (stereo not given) : 732
O=C(O)C1CCN(S(=O)(=O)c2cccc([N+](=O)[O-])c2)CC1 : 663
O=C(Nc1ccc2c(c1)CCCN2C(=O)c1ccco1)c1ccccc1C(F)(F)F : 792

P = Cc1cccc(-c2noc(Cc3nnc(-c4ccc(C)c(C)c4)o3)n2)c1
Q = O=C(Cc1ccc(F)cc1)N1CCN(c2nc(CN3CCOCC3)cs2)CC1
Req: Between P and Q , which one shows the smaller RP-LC retention time number? // caller expects the label of the chosen entry
Resp: Q

I = N#Cc1ccsc1NC(=O)CCSc1ccccc1
II = Nc1nc(-c2ccc(O)cc2)cs1
Req: Which shows the larger RP-LC retention time value: I or II ? // output: label of the selected item
Resp: I

1 = CCCN1C(=O)COc2cc(-c3noc(C(=O)NCC4CCCO4)n3)ccc21 (stereo not given)
2 = CCN1CCN(CCCNC(=O)CCCn2c3ccccc3c3cnn(C)c(=O)c32)CC1
Req: Could you check which of 1 and 2 has a smaller value for RP-LC retention time? Selection: enter the item's label.
Resp: 2

====

assay: gradient 5% acetonitrile 3 min, to 50% in 2 min, to 85% in 15 min, held 3 min, 100 µL/min; conditions: column: Zorbax Extend-C18 2.1 x 50 mm; eluents: water / acetonitrile, 0.1% formic acid
reported metric: RP-LC retention time (s)

I = CN1C(=O)Cc2ccccc2C1C(=O)NCc1ccc(F)cc1 (stereo not given)
II = Clc1cccc(CSc2nnc(-c3ccc(Br)cc3)o2)c1
Req: In terms of reported RP-LC retention time, does I or II have the smaller number? Use the label to indicate which entry you chose.
Resp: I
(I: 706 s, II: 1260 s)

A = COc1ccccc1CCNC(=O)C1CN(C(=O)c2c[nH]c3ccccc23)C1
B = COc1cc(OC)cc(-c2nc(-c3cn(Cc4ccccc4)nn3)no2)c1
Req: Looking at recorded values for RP-LC retention time, does A or B come in lower? # answer = label of selected item
Resp: A
(A: 673 s, B: 1000 s)

I = Cc1nn(C)c(C)c1CCC(=O)NCCn1c(C)cnc1C1CCC1
II = CC(C)(C)C(=O)Nc1ccc(NC(=O)C(C)(C)C)cc1
Req: Given I and given II , which shows the smaller recorded RP-LC retention time? Answer with the label corresponding to your selection.
Resp: I
(I: 547 s, II: 838 s)

a = CC(C)NC(=O)N(C)Cc1ccsc1
b = CC(NC(=O)c1sc2ncccc2c1-n1cccc1)c1ccc(F)cc1 (stereo not given)
Req: Compare a and b by numeric RP-LC retention time and name the larger one. Write the label of whichever entry you select.
Resp: b
(b: 1070 s, a: 730 s)

====

test: gradient 5% acetonitrile 3 min, to 50% in 2 min, to 85% in 15 min, held 3 min, 100 µL/min; conditions: column: Zorbax Extend-C18 2.1 x 50 mm; eluents: water / acetonitrile, 0.1% formic acid
reported metric: RP-LC retention time (s)

Cc1ccc(CN2CCC(CNC(=O)c3c(C)oc4ncnc(N5CCOCC5)c34)C2)cc1 (centres undefined) : 853
Cc1cccc2c(=O)c3c([nH]c12)CCN(CC(=O)NCc1ccccc1)C3 : 601
Cc1nnc(-c2ccc3ccn(CC(=O)N4CCN(c5ccccc5F)CC4)c3c2)o1 : 867
O=C(NC1CC1)c1ccc(N2CCC(NCc3ccc(Br)cc3)C2)nc1 (centres undefined) : 572
Cc1sc2ccn(Cc3ccc(F)cc3)c(=O)c2c1C(=O)N1CCCC1 : 764

P = Cc1nc(-c2csc(S(=O)(=O)N3CCCC(C(=O)Nc4cccc(F)c4)C3)c2)no1 (centres undefined)
Q = CN(C)S(=O)(=O)c1ccc2c(c1)N(CC(=O)NCCN1CCCC1)C(=O)C1CCCCN21 (centres undefined)
Req: From the recorded data, which exceeds the other in RP-LC retention time: P or Q ? State your choice using its label.
Resp: P

I = O=c1c2cc(-c3ccc(F)cc3)nn2cnn1Cc1nc(-c2ccc(Cl)c(F)c2)no1
II = O=C(CC1CCCC1)N1CCCCC1c1nncn1CC1CC1 (centres undefined)
III = CCN(CC)c1ccc(CNC(=O)C2CCc3nc(N4CCCCC4)ncc3C2)cc1 (centres undefined)
Req: Rank order required: RP-LC retention time, descending. As an answer, provide the labels arranged in the order called for.
Resp: I, II, III
(I: 1260 s, II: 781 s, III: 546 s)

a = Cc1ccccc1C(=O)Nc1nc(-c2ccc3c(c2)N(C)C(=O)C(C)O3)cs1 (centres undefined)
b = COc1ccc(CNC(=O)Cc2nnc(-c3ccccn3)o2)cc1OC
Req: Which has the higher RP-LC retention time, a or b ? State the label of the item chosen.
Resp: a

a = COCCN1CCn2cc(S(=O)(=O)Nc3ccc(C)cc3F)cc2C1=O
b = CC1CCCN(c2nn(CC(=O)Nc3cc(F)cc(F)c3)c(=O)c3ccccc23)C1 (centres undefined)
Req: // pick min by RP-LC retention time: a , b Indicate your choice by writing its label.
Resp: a
(a: 740 s, b: 1180 s)
